In this section we review reported melting point values for a set of compounds.

Recorded melting point, per entry:
>>> print(df.to_string())
                                   compound         result
0  Cc1ccc(C(=O)N/N=C/c2cc(C(F)(F)F)ccc2O)c(O)c1  264 to 271 °C
1   C/C(=N\NC(=O)c1ccc(Cl)cc1)c1ccc(Cl)cc1O  246 to 247 °C

Measured melting point, `COc1ccc(/C(C)=N/NC(=O)c2ccccc2Cl)c(O)c1OC` : 77 to 86 °C

Measured melting point, `Cc1ccc(C(=O)N/N=C/c2cc(Cl)cc(Cl)c2O)c(O)c1` : 262 to 269 °C

Measured melting point, `O=C(N/N=C/c1c(C(F)(F)F)ccc(Cl)c1O)c1ccccc1O` : 278 to 280 °C

Measured melting point, `O=C(N/N=C/c1c(O)cc(Cl)cc1Cl)c1ccccc1` : 273 to 274 °C

Measured melting point, `COc1cccc(/C(C)=N/NC(=O)c2ccc(C)cc2)c1O` : 146 to 148 °C

Measured melting point, `Cc1ccc(C(=O)N/N=C/c2cc(Br)cc(Br)c2O)c(C)c1` : 192 to 194 °C

Measured melting point, `COc1cc(O)c(/C(C)=N/NC(=O)c2ccc(C(F)(F)F)cc2)c(OC)c1` : 131 to 133 °C

Measured melting point, `COc1cccc(C(=O)N/N=C/c2cc(Cl)cc(Br)c2O)c1C` : 187 to 189 °C

Measured melting point, `O=C(N/N=C/c1c(O)ccc(Cl)c1Cl)c1ccccc1` : 273 to 274 °C

Measured melting point, `O=C(N/N=C/c1cc(C(F)(F)F)ccc1O)c1ccc(F)cc1` : 229 to 231 °C

Measured melting point, `O=C(N/N=C/c1cc(Cl)cc(C(F)(F)F)c1O)c1ccccc1C(F)(F)F` : 203 to 204 °C

Measured melting point, `O=C(N/N=C/c1cc(C(F)(F)F)ccc1O)c1ccccc1O` : 277 to 281 °C

Measured melting point, `C/C(=N\NC(=O)c1cccc(C)c1)c1cc(F)cc(F)c1O` : 215 to 216 °C

Measured melting point, `O=C(N/N=C/c1cc(Cl)cc(Cl)c1O)c1cc2ccccc2cc1O` : 287 to 292 °C

Measured melting point, `COc1ccc(/C(C)=N/NC(=O)c2ccc(C(F)(F)F)cc2)c(O)c1OC` : 229 to 233 °C

Measured melting point, `C/C(=N\NC(=O)c1ccccc1C)c1cccc([N+](=O)[O-])c1O` : 193 to 196 °C

Measured melting point, `Cc1cccc(C(=O)N/N=C/c2cc(C(F)(F)F)cc(Cl)c2O)c1` : 204 to 206 °C
